- procedure-summary: Stat Signaling Pathway (AID 446);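 further: ME-180 cervical cancer cells given 40 pM IL-6 alongside compound; SIE-controlled beta-lactamase reporter measured as 460/530 nm FRET emission ratio; on the % scale 0 is the no-effect control and ±100 the full control effect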
- test-settings: ME-180 (cervical carcinoma) SIE beta-lactamase reporter, IL-6 stimulated, 5 h; at 17.2 µM (top of the series)
Results filed as inconclusive are left out.
measurement-name: activity, negative = inhibition (%)

[[record]]
structure_as_smiles = "CC(=O)c1ccc2c(c1)N(CCCN1CCC(CCO)CC1)c1ccccc1S2"
measurement_name = "activity, negative = inhibition"
value = 9.61

[[record]]
structure_as_smiles = "CC(=O)OCC(=O)[C@@]12OC(C)(C)O[C@@H]1C[C@H]1[C@@H]3C[C@H](F)C4=CC(=O)C=C[C@]4(C)[C@@]3(F)[C@@H](O)C[C@@]12C"
measurement_name = "activity, negative = inhibition"
value = -3.28

[[record]]
structure_as_smiles = "C/C=C(/C(=C/C)c1ccc(O)cc1)c1ccc(O)cc1"
measurement_name = "activity, negative = inhibition"
value = -10.4

[[record]]
structure_as_smiles = "C[N+]1(CCCCC[N+]2(C)CCCC2)CCCC1"
measurement_name = "activity, negative = inhibition"
value = 14.2

[[record]]
structure_as_smiles = "CCN1CCC[C@H]1CNC(=O)c1c(OC)ccc(Br)c1OC"
measurement_name = "activity, negative = inhibition"
value = 14.1

